# TESTED_TARGET: Tumour suppressor p53/oncoprotein Mdm2 (Homo sapiens)
# Sequence (P04637 whole entry, the tested form may be a part): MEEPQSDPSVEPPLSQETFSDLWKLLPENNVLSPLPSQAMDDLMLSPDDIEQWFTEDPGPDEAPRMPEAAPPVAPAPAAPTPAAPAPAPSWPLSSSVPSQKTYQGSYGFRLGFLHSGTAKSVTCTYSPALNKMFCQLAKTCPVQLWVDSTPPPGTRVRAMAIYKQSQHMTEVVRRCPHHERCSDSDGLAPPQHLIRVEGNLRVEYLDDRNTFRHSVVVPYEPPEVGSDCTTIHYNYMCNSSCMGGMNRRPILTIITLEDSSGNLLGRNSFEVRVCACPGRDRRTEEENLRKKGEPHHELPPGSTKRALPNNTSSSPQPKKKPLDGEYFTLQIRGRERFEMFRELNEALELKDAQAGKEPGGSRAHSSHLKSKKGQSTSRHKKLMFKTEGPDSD
# Sequence (Q00987 whole entry, the tested form may be a part): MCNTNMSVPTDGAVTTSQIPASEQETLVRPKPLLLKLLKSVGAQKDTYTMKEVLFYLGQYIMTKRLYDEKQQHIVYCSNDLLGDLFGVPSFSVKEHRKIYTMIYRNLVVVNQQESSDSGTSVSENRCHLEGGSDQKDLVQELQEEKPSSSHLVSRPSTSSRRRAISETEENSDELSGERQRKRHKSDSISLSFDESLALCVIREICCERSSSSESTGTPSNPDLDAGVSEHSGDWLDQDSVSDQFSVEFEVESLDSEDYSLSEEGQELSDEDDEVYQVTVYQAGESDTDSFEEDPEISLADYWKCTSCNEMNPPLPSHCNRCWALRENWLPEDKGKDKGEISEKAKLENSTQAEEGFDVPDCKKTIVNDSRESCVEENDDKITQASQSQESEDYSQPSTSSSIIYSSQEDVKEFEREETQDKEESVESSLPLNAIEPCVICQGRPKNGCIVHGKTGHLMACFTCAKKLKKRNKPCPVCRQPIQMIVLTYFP
# ASSAY_DETAILS: Competitive inhibition of recombinant human Mdm2 (aa 1 to 118)-p53 ( 1 to 321) interaction
So I've got a bunch of compounds here, and I need their Ki values.
Your answer is read as µM, so omit the unit and give the number.

Exercise: Bench note: what Ki did O=C(NCc1ccc(Cl)c(Cl)c1)C1C(=O)Nc2sc3c(c2C(=O)N1Cc1ccc(Cl)cc1)CCCC3 (configuration not stated) show?
Solution: 45

Exercise: Bench note: what Ki did O=C(NCc1ccccc1)C1C(=O)Nc2sc3c(c2C(=O)N1Cc1ccc(Cl)cc1)CCCC3 (configuration not stated) show?
Solution: 40

* * *

# TESTED_TARGET: E3 ubiquitin-protein ligase Mdm2 (Homo sapiens, UniProt Q00987)
# Sequence (Q00987 whole entry): as the sequence (Q00987 whole entry, the tested form may be a part) above
# ASSAY_DETAILS: Inhibition of Mdm2 in p53-deficient human PA-1 cells
# Format: cell-based
QUANTITY_KIND: IC50 (µM)
Your answer is read as µM, so omit the unit and give the number.

Exercise: Bench note: what IC50 did O=C1C(O)=C(c2ccccc2)C(c2ccc(Cl)cc2)N1Cc1ccc(Cl)cc1 (stereo unspecified) show?
Solution: 26.2

* * *

# TESTED_TARGET: Tyrosine-protein phosphatase non-receptor type 1 (Homo sapiens)
# Sequence (P18031 whole entry): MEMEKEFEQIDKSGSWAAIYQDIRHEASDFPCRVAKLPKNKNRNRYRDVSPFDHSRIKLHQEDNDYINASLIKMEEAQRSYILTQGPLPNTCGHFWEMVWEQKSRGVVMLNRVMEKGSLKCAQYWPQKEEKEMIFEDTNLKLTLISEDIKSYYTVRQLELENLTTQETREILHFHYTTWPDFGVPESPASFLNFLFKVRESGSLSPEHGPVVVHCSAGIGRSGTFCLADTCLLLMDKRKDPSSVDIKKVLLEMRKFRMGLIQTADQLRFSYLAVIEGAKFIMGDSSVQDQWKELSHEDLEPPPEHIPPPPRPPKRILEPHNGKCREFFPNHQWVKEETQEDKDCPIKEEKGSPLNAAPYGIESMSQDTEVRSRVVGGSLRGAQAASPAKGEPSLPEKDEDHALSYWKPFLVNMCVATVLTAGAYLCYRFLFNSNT
QUANTITY_KIND: IC50 (nM)
Your answer is read as nM, so omit the unit and give the number.

Exercise: Bench note: what IC50 did COC(c1ccc(C)cc1)c1cnn2c(-c3ccccc3)cc3c(Cl)cccc3c12 (stereo unspecified) show?
Solution: 1000

* * *

# Tested on: Plasmodium falciparum
# ASSAY_DETAILS: Antiparasitic activity against chloroquine-resistant Plasmodium falciparum assessed as inhibition of parasite survival
# Format: functional, organism-based
So I've got a bunch of compounds here, and I need their IC50 values.
Your answer is read as nM, so omit the unit and give the number.

Exercise: Bench note: what IC50 did O=C(CN(CCCNc1ccnc2cc(Cl)ccc12)C(=O)c1cnccn1)NC1CCCCC1 show?
Solution: 540

Exercise: Bench note: what IC50 did O=C(CN(CCCNc1ccnc2cc(Cl)ccc12)C(=O)c1ccncc1)NC1CCCCC1 show?
Solution: 610
